protocol: In vitro metabolic stability in rat plasma
Format: in vitro ADME
details: rat, plasma, 37° C., 10 μM compound, read-out: Rat plasma T1/2
# reported half-life at 10 µM; entries follow

compound | half-life at 10 µM (min)
CC[C@@H](C(C)OC(=O)OC(C)OC(=O)CCCCCCCCCOP(=O)([O-])[O-])n1ncn(-c2ccc(N3CCN(c4ccc(OC[C@@H]5CO[C@@](Cn6cncn6)(c6ccc(F)cc6F)C5)cc4)CC3)cc2)c1=O.[Na+].[Na+] (stereo partly drawn) | 25.6
CC[C@@H](C(C)OC(=O)OC(C)OC(=O)CCOP(=O)([O-])[O-])n1ncn(-c2ccc(N3CCN(c4ccc(OC[C@@H]5CO[C@@](Cn6cncn6)(c6ccc(F)cc6F)C5)cc4)CC3)cc2)c1=O.[Na+].[Na+] (stereo partly drawn) | 12.6
CC[C@@H](C(C)OC(=O)OC(C)OC(=O)CCCCCOS(=O)(=O)[O-])n1ncn(-c2ccc(N3CCN(c4ccc(OC[C@@H]5CO[C@@](Cn6cncn6)(c6ccc(F)cc6F)C5)cc4)CC3)cc2)c1=O.[Na+] (stereo partly drawn) | 2.06

====

# reported responders at 20 mg/kg; entries follow
Tested on: Candida albicans ATCC10231
protocol: Systemic fungal infection in mice, intragastric administration
Type: in vivo, ICR mice
details: Candida albicans, ATCC10231, po, 96 h; 20 mg/kg intragastric once daily for 5 days; day 4; read-out: survival rate of mice, day 4
readout_label: responders at 20 mg/kg (%)

molecule | measured_target | readout_label | endpoint_value
CC[C@@H](C(C)OC(=O)OC(C)OC(=O)CCCOS(=O)(=O)[O-])n1ncn(-c2ccc(N3CCN(c4ccc(OC[C@@H]5CO[C@@](Cn6cncn6)(c6ccc(F)cc6F)C5)cc4)CC3)cc2)c1=O.[Na+] (stereo partly drawn) | Candida albicans ATCC10231 | responders at 20 mg/kg | 80
CC[C@@H]([C@H](C)OC(=O)OC(C)OC(=O)CCCCCCCOS(=O)(=O)[O-])n1ncn(-c2ccc(N3CCN(c4ccc(OC[C@@H]5CO[C@@](Cn6cncn6)(c6ccc(F)cc6F)C5)cc4)CC3)cc2)c1=O.[Na+] (stereo partly drawn) | Candida albicans ATCC10231 | responders at 20 mg/kg | 70
CC[C@@H]([C@H](C)OC(=O)OC(C)OC(=O)CNC)n1ncn(-c2ccc(N3CCN(c4ccc(OC[C@@H]5CO[C@@](Cn6cncn6)(c6ccc(F)cc6F)C5)cc4)CC3)cc2)c1=O.Cl (stereo partly drawn) | Candida albicans ATCC10231 | responders at 20 mg/kg | 60
CC[C@@H](C(C)OC(=O)OC(C)OC(=O)CCCCCOS(=O)(=O)[O-])n1ncn(-c2ccc(N3CCN(c4ccc(OC[C@@H]5CO[C@@](Cn6cncn6)(c6ccc(F)cc6F)C5)cc4)CC3)cc2)c1=O.[Na+] (stereo partly drawn) | Candida albicans ATCC10231 | responders at 20 mg/kg | 80
CC[C@@H](C(C)OC(=O)OC(C)OC(=O)CCCCOS(=O)(=O)[O-])n1ncn(-c2ccc(N3CCN(c4ccc(OC[C@@H]5CO[C@@](Cn6cncn6)(c6ccc(F)cc6F)C5)cc4)CC3)cc2)c1=O.[Na+] (stereo partly drawn) | Candida albicans ATCC10231 | responders at 20 mg/kg | 70
CC[C@@H]([C@H](C)OC(=O)OC(C)OC(=O)Cc1ccc(OS(=O)(=O)[O-])cc1)n1ncn(-c2ccc(N3CCN(c4ccc(OC[C@@H]5CO[C@@](Cn6cncn6)(c6ccc(F)cc6F)C5)cc4)CC3)cc2)c1=O.[Na+] (stereo partly drawn) | Candida albicans ATCC10231 | responders at 20 mg/kg | 80

====

Test system: Aspergillus Fumigutus (AF) strains
protocol: Aspergillus fumigatus keratitis in rats, intravenous administration
details: 10 mg/kg tail vein once daily for 5 days; mean ± SD of 10 rats
readout_label: Amount of active fungi in cornea at day 7

molecule | measured_target | endpoint_value
CC[C@@H]([C@H](C)O)n1ncn(-c2ccc(N3CCN(c4ccc(OC[C@@H]5CO[C@@](Cn6c[n+](C(C)OC(=O)N(C)c7ncccc7COC(=O)C[C@H](N)C(=O)O)cn6)(c6ccc(F)cc6F)C5)cc4)CC3)cc2)c1=O (stereo partly shown) | Aspergillus Fumigutus (AF) strains | 5.58 ± 1.12 10^3 CFU/ml
CC[C@@H]([C@H](C)O)n1ncn(-c2ccc(N3CCN(c4ccc(OC[C@@H]5CO[C@@](Cn6c[n+](C(C)OC(=O)N(C)c7ncccc7COC(=O)[C@@H](N)CCCN)cn6)(c6ccc(F)cc6F)C5)cc4)CC3)cc2)c1=O (stereo partly shown) [ST0011] | Aspergillus Fumigutus (AF) strains | 1.79 ± 0.44 10^3 CFU/ml
CC[C@@H]([C@H](C)O)n1ncn(-c2ccc(N3CCN(c4ccc(OC[C@@H]5CO[C@@](Cn6c[n+](C(C)OC(=O)N(C)c7ncccc7COC(=O)[C@@H](N)CCN)cn6)(c6ccc(F)cc6F)C5)cc4)CC3)cc2)c1=O (stereo partly shown) | Aspergillus Fumigutus (AF) strains | 1.92 ± 0.41 10^3 CFU/ml
CCC([C@H](C)OC(=O)C(O)C(O)COP(=O)(O)O)n1ncn(-c2ccc(N3CCN(c4ccc(OC[C@@H]5CO[C@@](Cn6cncn6)(c6ccc(F)cc6F)C5)cc4)CC3)cc2)c1=O (stereo partly shown) | Aspergillus Fumigutus (AF) strains | 3.73 ± 0.63 10^3 CFU/ml
CC[C@@H]([C@H](C)O)n1ncn(-c2ccc(N3CCN(c4ccc(OC[C@@H]5CO[C@@](Cn6c[n+](C(C)OC(=O)N(C)c7ncccc7COC(=O)[C@@H](N)CCCNC(N)=O)cn6)(c6ccc(F)cc6F)C5)cc4)CC3)cc2)c1=O (stereo partly shown) | Aspergillus Fumigutus (AF) strains | 1.45 ± 0.37 10^3 CFU/ml
CC[C@@H]([C@H](C)O)n1ncn(-c2ccc(N3CCN(c4ccc(OC[C@@H]5CO[C@@](Cn6c[n+](C(C)OC(=O)N(C)c7ncccc7COC(=O)CCC(=O)O)cn6)(c6ccc(F)cc6F)C5)cc4)CC3)cc2)c1=O (stereo partly shown) | Aspergillus Fumigutus (AF) strains | 5.90 ± 1.06 10^3 CFU/ml
CC[C@@H]([C@H](C)O)n1ncn(-c2ccc(N3CCN(c4ccc(OC[C@@H]5CO[C@@](Cn6c[n+](C(C)OC(=O)N(C)c7ncccc7COC(=O)CN)cn6)(c6ccc(F)cc6F)C5)cc4)CC3)cc2)c1=O (stereo partly shown) | Aspergillus Fumigutus (AF) strains | 2.37 ± 0.49 10^3 CFU/ml
CC[C@@H]([C@H](C)OP(=O)(O)O)n1ncn(-c2ccc(N3CCN(c4ccc(OC[C@@H]5CO[C@@](Cn6c[n+](C(C)OC(=O)N(C)c7ncccc7COC(=O)[C@@H](N)CCCN)cn6)(c6ccc(F)cc6F)C5)cc4)CC3)cc2)c1=O (stereo partly shown) | Aspergillus Fumigutus (AF) strains | 2.76 ± 0.45 10^3 CFU/ml
CC[C@@H]([C@H](C)O)n1ncn(-c2ccc(N3CCN(c4ccc(OC[C@@H]5CO[C@@](Cn6c[n+](C(C)OC(=O)N(C)c7ncccc7COC(=O)[C@@H](N)CCCN)cn6)(c6ccc(F)cc6F)C5)cc4)CC3)cc2)c1=O (stereo partly shown) [ST0007] | Aspergillus Fumigutus (AF) strains | 1.87 ± 0.35 10^3 CFU/ml
CC[C@@H]([C@H](C)OC(=O)[C@@H](N)CO)n1ncn(-c2ccc(N3CCN(c4ccc(OC[C@@H]5CO[C@@](Cn6c[n+](C(C)OC(=O)N(C)c7ncccc7COC(=O)[C@@H](N)CCCN)cn6)(c6ccc(F)cc6F)C5)cc4)CC3)cc2)c1=O (stereo partly shown) | Aspergillus Fumigutus (AF) strains | 3.93 ± 0.73 10^3 CFU/ml

====

protocol: Determination of solubility in deionized water (HPLC, external standard)
details: 25 °C, water, thermodynamic from solid
# reported solubility at 30 min; entries follow

compound | solubility at 30 min
CC[C@@H]([C@H](C)O)n1ncn(-c2ccc(N3CCN(c4ccc(OC[C@@H]5CO[C@@](Cn6c[n+](C(C)OC(=O)N(C)c7ncccc7COC(=O)CCC(=O)O)cn6)(c6ccc(F)cc6F)C5)cc4)CC3)cc2)c1=O (stereo partly drawn) | > 50 mg/mL
CC[C@@H]([C@H](C)O)n1ncn(-c2ccc(N3CCN(c4ccc(OC[C@@H]5CO[C@@](Cn6c[n+](C(C)OC(=O)N(C)c7ncccc7COC(=O)CN(C)C)cn6)(c6ccc(F)cc6F)C5)cc4)CC3)cc2)c1=O (stereo partly drawn) | > 50 mg/mL
CC[C@@H]([C@H](C)O)n1ncn(-c2ccc(N3CCN(c4ccc(OC[C@@H]5CO[C@@](Cn6c[n+](C(C)OC(=O)N(C)c7ncccc7COC(=O)[C@@H](N)CCN)cn6)(c6ccc(F)cc6F)C5)cc4)CC3)cc2)c1=O (stereo partly drawn) | > 50 mg/mL
CC[C@@H](C(C)OC(=O)OC(C)OC(=O)CCCCCCOP(=O)([O-])[O-])n1ncn(-c2ccc(N3CCN(c4ccc(OC[C@@H]5CO[C@@](Cn6cncn6)(c6ccc(F)cc6F)C5)cc4)CC3)cc2)c1=O.[Na+].[Na+] (stereo partly drawn) | > 50 mg/mL
CC[C@@H](C(C)OC(=O)OC(C)OC(=O)COS(=O)(=O)[O-])n1ncn(-c2ccc(N3CCN(c4ccc(OC[C@@H]5CO[C@@](Cn6cncn6)(c6ccc(F)cc6F)C5)cc4)CC3)cc2)c1=O.[Na+] (stereo partly drawn) | > 50 mg/mL
CC[C@@H]([C@H](C)O)n1ncn(-c2ccc(N3CCN(c4ccc(OC[C@@H]5CO[C@@](Cn6c[n+](C(C)OC(=O)N(C)c7ncccc7COC(=O)[C@@H](N)CCCN)cn6)(c6ccc(F)cc6F)C5)cc4)CC3)cc2)c1=O (stereo partly drawn) | > 50 mg/mL
